These measurements were taken from patent US12291533B2.

The reader will find reported AC50 values listed item by item below.
Biological target: glucocerebrosidase (Homo sapiens, UniProt P04062)
Sequence (P04062 40-536): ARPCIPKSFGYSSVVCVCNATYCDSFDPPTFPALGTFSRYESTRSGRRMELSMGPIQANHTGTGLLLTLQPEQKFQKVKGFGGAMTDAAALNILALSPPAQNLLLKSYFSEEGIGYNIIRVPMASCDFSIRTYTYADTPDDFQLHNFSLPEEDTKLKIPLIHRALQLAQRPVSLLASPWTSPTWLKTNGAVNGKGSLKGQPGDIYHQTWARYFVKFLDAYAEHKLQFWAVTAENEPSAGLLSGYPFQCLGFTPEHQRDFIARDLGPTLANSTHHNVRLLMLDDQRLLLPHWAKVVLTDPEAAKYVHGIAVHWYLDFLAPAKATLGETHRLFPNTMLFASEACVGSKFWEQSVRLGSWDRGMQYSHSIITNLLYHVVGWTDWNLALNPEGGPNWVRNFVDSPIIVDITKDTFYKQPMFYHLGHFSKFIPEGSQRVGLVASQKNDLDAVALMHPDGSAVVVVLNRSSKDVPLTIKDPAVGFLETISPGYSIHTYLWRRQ
Experiment: Glucocerebrosidase activity assay with blue substrate (4MU-Glc)
Assay type: biochemical
Settings: Table 1; 7.5 nM enzyme, 1.5 mM 4MU-Glc, 30 min at 37° C., titration 24 nM to 50 μM
Property name: AC50

- Compound: "CN(CCOc1ccccc1)c1nc(-c2cccnc2)nc2ccccc12 [Compound 13]"
  Property name: "AC50"
  Recorded measurement: "3.55 µM"
- Compound: "CN(CCOc1ccccc1)c1nc(-c2cccnc2)nc2ccc(C(F)(F)F)cc12 [Compound 45]"
  Property name: "AC50"
  Recorded measurement: "5 µM"
- Compound: "CCn1ncc2c(N(C)CCOc3ccc(CN)cc3)nc(-c3cccnc3)nc21 [Compound 110]"
  Property name: "AC50"
  Recorded measurement: "7.94 µM"
- Compound: "CN(CCOc1ccc(C(=O)ON2C(=O)CCC2=O)cc1)c1nc(-c2cccnc2)nc2ccccc12 [Compound 83]"
  Property name: "AC50"
  Recorded measurement: "3.98 µM"
- Compound: "CN(CCOc1ccccc1)c1nc(-c2cccnc2)nc2ccoc12 [Compound 67]"
  Property name: "AC50"
  Recorded measurement: "10 µM"
- Compound: "COC(=O)Cc1cccc(OCCN(C)c2nc(-c3cccnc3)nc3ccccc23)c1 [Compound 95]"
  Property name: "AC50"
  Recorded measurement: "4.47 µM"
- Compound: "CN(CCOc1ccccc1)c1nc(-c2cncc(C(F)(F)F)c2)nc2ccccc12 [Compound 37]"
  Property name: "AC50"
  Recorded measurement: "1.65 µM"
- Compound: "CN(CCOc1ccccc1)c1nc(-c2cccnc2)nc2c1ccn2C [Compound 72]"
  Property name: "AC50"
  Recorded measurement: "6.31 µM"
- Compound: "CN(Cc1cc2ccccc2o1)c1nc(-c2cccnc2)nc2c1cnn2C [Compound 89]"
  Property name: "AC50"
  Recorded measurement: "4.47 µM"
- Compound: "COC(=O)Cc1cccc(OCCN(C)c2nc(-c3cccnc3)nc3ncccc23)c1 [Compound 94]"
  Property name: "AC50"
  Recorded measurement: "14.1 µM"
- Compound: "CCn1ncc2c(N(C)CCOc3ccc(CNC(=O)CCCCCN)cc3)nc(-c3cccnc3)nc21 [Compound 112]"
  Property name: "AC50"
  Recorded measurement: "3.55 µM"
- Compound: "CN(CCOc1ccccc1)c1nc(-c2cccnc2)nc2c1CCCC2 [Compound 58]"
  Property name: "AC50"
  Recorded measurement: "1.41 µM"
- Compound: "CN(CCN(C)c1nc(-c2cccnc2)nc2ccccc12)c1ccccc1 [Compound 42]"
  Property name: "AC50"
  Recorded measurement: "6.54 µM"
- Compound: "CN(C[C@@H]1COc2ccccc2O1)c1nc(-c2cccnc2)nc2ccccc12 [Compound 12]"
  Property name: "AC50"
  Recorded measurement: "2.67 µM"
- Compound: "CN(C[C@H]1COc2ccccc2O1)c1nc(-c2cccnc2)nc2ccccc12 [Compound 9]"
  Property name: "AC50"
  Recorded measurement: "1.49 µM"
- Compound: "CN(CCOc1ccccc1)c1nc(-c2cccnc2)nc2[nH]ccc12 [Compound 63]"
  Property name: "AC50"
  Recorded measurement: "3.98 µM"
